Reference for the values: ChEMBL document CHEMBL3272026

- experimental details: Lipophilicity, log P of the compound
- Assay type: physicochemical
- condition description: octanol/water; read-out: logP

>  <smiles string>
Cc1cccc(Nc2ccccc2C(=O)O)c1C

>  <logP>
0.28

$$$$
